test_summary: antibacterial activity against Escherichia coli – OD600, primary screen (AID 1053175)
conditions_used: Escherichia coli growth, OD600, 23 h; hits give low values
Screen size: about 330,000 compounds; about 700 (0.21%) were called active. The full list was thinned out, with actives kept by preference.
We begin with a simple list: items and their reported OD600 absorbance.
quantity: OD600 absorbance

>>> endpoint_value("Nc1nonc1C(=O)NN=Cc1ccc([N+](=O)[O-])o1")
0.449
>>> endpoint_value("C=C1C(=O)OC2CC(C)C3C=CC(=O)[C@@]3(C)C(O)C12 (stereo not given in full)")
0.625
>>> endpoint_value("COc1cccc(N2C(=O)NC(=O)/C(=C\\c3ccc([N+](=O)[O-])s3)C2=O)c1")
0.482
>>> endpoint_value("CNC(=O)Nc1ccc(C(=O)NN=CC23CC[C@@H](O)CC2(O)CC[C@@H]2[C@@H]3CCC3(C)C(C4=CC(=O)OC4)CCC23O)cc1 (stereo not given in full)")
0.72
>>> endpoint_value("O=C1NC(=O)N(c2ccccc2)C(=O)/C1=C/c1ccc([N+](=O)[O-])s1")
0.531
